Tested on: Tau-BiFC cells
Assay: Cell viability (stained nuclei count) in Tau-BiFC cells
Assay type: cell-based
Settings: 10 μM compound, 48 hours; Forskolin-only group = 100% cell viability
readout name: Cell viability (% @10 μM) (%)
Write the value in % as a bare number.

Please review the following examples before continuing.
compound: CCn1c(=O)n(C2CC2)c2ncc(NN=C(C#N)C#N)cc21 [Compound 52]
Cell viability (% @10 μM), %: 133

compound: N#CC(C#N)=NNc1ccc2c(c1)n(C(F)F)c(=O)n2C(F)F [Compound 24]
Cell viability (% @10 μM), %: 125.1

compound: Cc1cc2c(NN=C(C#N)C#N)cccc2c(=O)n1C [Compound 7]
Cell viability (% @10 μM), %: 101.9

compound: Cc1cc(=O)n(C)c2ccc(NN=C(C#N)C#N)cc12 [Compound 27]
Cell viability (% @10 μM), %: 115

compound: Cn1c(=O)ccc2cc(NN=C(C#N)C#N)ccc21 [Compound 25]
Cell viability (% @10 μM), %: 118

compound: CC(C)n1c(=O)n(C)c2cc(NN=C(C#N)C#N)cnc21 [Compound 54]
Cell viability (% @10 μM), %: 118

compound: CC(C)n1ccc2ccc(NN=C(C#N)C#N)cc2c1=O [Compound 3]
Cell viability (% @10 μM), %: 112

compound: Cn1c(=O)n(C2CC2)c2ccc(NN=C(C#N)C#N)cc21 [Compound 40]
Cell viability (% @10 μM), %: 122

Ask: Look up Cell viability (% @10 μM): N#CC(C#N)=NNc1cccc2c(=O)[nH]ccc12 [Compound 4]
Result: 99.3

Ask: Field request: Cell viability (% @10 μM) | item: CC(C)n1c(=O)oc2ccc(NN=C(C#N)C#N)cc21 [Compound 29]
Result: 133

###

Target: CYP2D6 (Homo sapiens)
Construct: human liver microsomes (0.25 mg/mL); from tissue; host or cells: human liver microsomes
Sequence (P10635 whole entry): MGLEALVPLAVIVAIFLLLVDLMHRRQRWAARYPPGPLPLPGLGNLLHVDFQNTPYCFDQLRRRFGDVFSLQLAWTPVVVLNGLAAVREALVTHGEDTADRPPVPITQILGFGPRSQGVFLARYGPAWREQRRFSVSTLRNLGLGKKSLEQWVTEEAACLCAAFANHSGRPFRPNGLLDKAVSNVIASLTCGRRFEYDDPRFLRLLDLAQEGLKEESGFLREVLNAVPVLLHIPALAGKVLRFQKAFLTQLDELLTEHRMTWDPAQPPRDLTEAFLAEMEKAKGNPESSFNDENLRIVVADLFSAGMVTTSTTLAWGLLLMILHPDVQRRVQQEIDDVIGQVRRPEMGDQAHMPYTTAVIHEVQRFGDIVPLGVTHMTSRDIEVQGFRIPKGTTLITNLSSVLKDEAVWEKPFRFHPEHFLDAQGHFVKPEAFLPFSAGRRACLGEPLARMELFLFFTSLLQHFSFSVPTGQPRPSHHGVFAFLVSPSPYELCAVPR
Assay: Inhibitory effect on CYP coenzyme activity, human liver microsomes
Type: in vitro ADME
Conditions: 10 μM compound, human liver microsomes 0.25 mg/mL, substrate dextromethorphan, 15 minutes
readout name: CYP2D6 coenzyme activity (%) with respect to control group not treated

compound: Cn1c(=O)n(C)c2c(Cl)cc(NN=C(C#N)C#N)cc21 [Compound 11]
observed measurement: >100%

compound: CC(C)n1c(=O)n(C(F)F)c2cc(NN=C(C#N)C#N)ccc21 [Compound 43]
observed measurement: 82.2%

compound: N#CC(C#N)=NNc1ccc2c(c1)oc(=O)n2C(F)F [Compound 21]
observed measurement: 89.1%

compound: Cn1c(=O)oc2cc(NN=C(C#N)C#N)ccc21 [Compound 16]
observed measurement: >100%

Consider the additional compound presented here.
Ask: State the recorded CYP2D6 coenzyme activity (%) with respect to control group not treated for this entry: N#CC(C#N)=NNc1ccc2[nH]c(=O)sc2c1 [Compound 13]
Result: 99.4%

###

Biological target: CYP2C9 (Homo sapiens, UniProt P11712)
Construct: human liver microsomes (0.25 mg/mL); from tissue; host or cells: human liver microsomes
Sequence (P11712 whole entry): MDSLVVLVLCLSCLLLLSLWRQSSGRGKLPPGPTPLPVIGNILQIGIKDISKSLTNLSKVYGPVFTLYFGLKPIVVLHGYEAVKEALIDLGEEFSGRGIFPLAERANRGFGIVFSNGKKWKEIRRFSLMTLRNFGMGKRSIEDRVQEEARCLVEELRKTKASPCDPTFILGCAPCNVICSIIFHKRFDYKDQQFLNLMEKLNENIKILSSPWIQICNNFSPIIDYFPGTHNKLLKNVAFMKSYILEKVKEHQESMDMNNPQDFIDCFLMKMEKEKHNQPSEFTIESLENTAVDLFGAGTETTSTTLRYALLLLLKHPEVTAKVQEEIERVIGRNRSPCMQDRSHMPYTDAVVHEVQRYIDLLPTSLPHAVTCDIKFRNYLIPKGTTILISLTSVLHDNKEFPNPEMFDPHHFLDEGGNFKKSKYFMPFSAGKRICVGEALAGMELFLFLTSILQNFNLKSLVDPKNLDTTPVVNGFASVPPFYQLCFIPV
Test: Inhibitory effect on CYP coenzyme activity, human liver microsomes
Assay type: in vitro ADME
Details: 10 μM compound, human liver microsomes 0.25 mg/mL, substrate diclofenac, 15 minutes
readout name: CYP2C9 coenzyme activity (%) with respect to control group not treated
Numbers only; they are read as %.

smi: Cn1c(=O)n(C(F)F)c2cc(NN=C(C#N)C#N)ccc21
observed measurement: 29.2

smi: CC(C)n1c(=O)n(C(C)C)c2ncc(NN=C(C#N)C#N)cc21
observed measurement: 41.9

smi: Cn1ccc2c(NN=C(C#N)C#N)cccc2c1=O
observed measurement: 29.1

Consider the record given below.
Ask: Name the reported CYP2C9 coenzyme activity (%) with respect to control group not treated value associated with the compound CCn1c(=O)n(C(C)C)c2ncc(NN=C(C#N)C#N)cc21
Result: 38.9
